Cited source: patent US12084436B2

Target: HDAC6 enzyme (Homo sapiens, UniProt Q9UBN7)
Construct: prepared by transducing full length HDAC6 gene into Sf-9 insect cells; GST; purchased SignalChem; host or cells: Sf-9 insect cells
Sequence (Q9UBN7 whole entry): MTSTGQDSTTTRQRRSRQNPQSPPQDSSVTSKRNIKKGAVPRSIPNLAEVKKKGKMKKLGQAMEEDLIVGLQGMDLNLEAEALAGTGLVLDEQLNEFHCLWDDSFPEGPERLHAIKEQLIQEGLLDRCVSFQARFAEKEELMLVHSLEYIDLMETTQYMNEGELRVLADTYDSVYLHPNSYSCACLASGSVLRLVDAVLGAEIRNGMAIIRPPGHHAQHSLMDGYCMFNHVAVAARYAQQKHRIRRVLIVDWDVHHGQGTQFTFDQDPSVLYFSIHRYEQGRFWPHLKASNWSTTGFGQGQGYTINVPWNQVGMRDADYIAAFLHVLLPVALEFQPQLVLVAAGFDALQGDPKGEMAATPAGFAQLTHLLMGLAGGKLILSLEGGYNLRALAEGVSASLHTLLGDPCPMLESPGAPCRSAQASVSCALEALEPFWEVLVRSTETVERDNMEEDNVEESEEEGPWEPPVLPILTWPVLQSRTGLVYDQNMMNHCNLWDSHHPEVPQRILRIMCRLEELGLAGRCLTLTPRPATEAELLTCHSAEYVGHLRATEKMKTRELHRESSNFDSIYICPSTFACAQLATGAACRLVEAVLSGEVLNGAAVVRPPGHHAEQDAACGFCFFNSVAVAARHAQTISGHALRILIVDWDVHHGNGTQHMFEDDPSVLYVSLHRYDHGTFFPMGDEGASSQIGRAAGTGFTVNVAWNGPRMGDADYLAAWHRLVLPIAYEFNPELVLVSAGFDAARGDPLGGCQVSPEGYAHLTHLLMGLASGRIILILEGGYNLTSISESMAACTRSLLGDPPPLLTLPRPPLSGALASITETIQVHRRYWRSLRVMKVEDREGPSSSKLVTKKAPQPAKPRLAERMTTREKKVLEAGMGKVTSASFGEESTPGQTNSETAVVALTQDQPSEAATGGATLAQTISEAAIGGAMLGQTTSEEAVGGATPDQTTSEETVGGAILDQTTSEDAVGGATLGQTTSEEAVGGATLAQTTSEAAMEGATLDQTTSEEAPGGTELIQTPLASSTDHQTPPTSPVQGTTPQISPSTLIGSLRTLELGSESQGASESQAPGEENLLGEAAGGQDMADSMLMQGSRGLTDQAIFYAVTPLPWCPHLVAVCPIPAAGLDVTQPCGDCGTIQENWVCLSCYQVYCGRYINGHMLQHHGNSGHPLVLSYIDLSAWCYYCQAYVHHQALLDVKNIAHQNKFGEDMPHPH
Experiment: HDAC6 enzyme inhibitory assay (HDAC-Glo I/II Assay kit, luminescence)
Type: biochemical
Conditions: 10 μM test compound; wells without enzyme = 100% inhibition; read-out: HDAC6 inhibitory rate (%) (10 μM)
MEASUREMENT_LABEL: inhibition at 10 µM (%)

COMPOUND | MEASUREMENT_LABEL | REPORTED_MEASUREMENT
Fc1cc(-c2nnc(C(F)F)o2)cc(-c2ncccc2OCC2CCOC2)c1 (centres unmarked) [Example 12a] | inhibition at 10 µM | 99
CC1(c2ccc(F)cc2)Oc2ccc(-c3nnc(C(F)F)o3)cc2C(=O)N1CC1CC1 (centres unmarked) [Example 47b] | inhibition at 10 µM | 101
CN(C1CC1)N1Cc2ccc(-c3nnc(C(F)F)o3)cc2C1=O [Example 66c] | inhibition at 10 µM | 94
CN(Cc1ccnc(F)c1)N1Cc2ccc(-c3nnc(C(F)F)o3)cc2C1=O [Example 51c] | inhibition at 10 µM | 100
CN(CCOCc1ccccc1)N1Cc2ccc(-c3nnc(C(F)F)o3)cc2C1=O [Example 48c] | inhibition at 10 µM | 99

====

Target: HDAC6 enzyme (Homo sapiens)
Construct: prepared by transducing full length HDAC6 gene into Sf-9 insect cells; GST; purchased SignalChem; host or cells: Sf-9 insect cells
Assay: HDAC6 enzyme inhibitory assay (HDAC-Glo I/II Assay kit, luminescence)
Assay type: biochemical
Conditions: 10 μM test compound; wells without enzyme = 100% inhibition; read-out: HDAC6 inhibitory rate (%) (10 μM)
MEASUREMENT_LABEL: inhibition at 10 µM (%)

MOLECULE | MEASUREMENT_LABEL | UNITS_SYMBOL | REPORTED_MEASUREMENT
O=C1c2cc(-c3nnc(C(F)F)o3)ccc2CN1NCC(F)(F)F [Example 31c] | inhibition at 10 µM | % | 90
Cn1ccc(OC2CCOCC2)c(-c2cc(-c3nnc(C(F)F)o3)ccn2)c1=O [Example 91a] | inhibition at 10 µM | % | 100
CNC(=O)c1ccc(Cn2ccnc2-c2cc(F)cc(-c3nnc(C(F)F)o3)c2)cc1F [Example 34a] | inhibition at 10 µM | % | 98
CN1C(=O)c2cc(-c3nnc(C(F)F)o3)ccc2OC1(C)c1ccc(C(F)(F)F)cc1 (centres unmarked) [Example 17b] | inhibition at 10 µM | % | 100
O=C1c2cc(-c3nnc(C(F)F)o3)ccc2CN1N(Cc1cnn(C2CC2)c1)Cc1cnn(C2CC2)c1 [Example 10c] | inhibition at 10 µM | % | 97
FC(F)c1nnc(-c2ccnc(-c3nc(Cl)cn3Cc3ccccn3)c2)o1 [Example 39a] | inhibition at 10 µM | % | 98
COc1cc(CN(C)N2Cc3ccc(-c4nnc(C(F)F)o4)cc3C2=O)cc(OC)c1 [Example 63c] | inhibition at 10 µM | % | 101
CN(Cc1ccc(F)c(F)c1)N1Cc2ccc(-c3nnc(C(F)F)o3)cc2C1=O [Example 40c] | inhibition at 10 µM | % | 101
CC(C)(C)OC(=O)NN1Cc2ccc(-c3nnc(C(F)F)o3)cc2C1=O | inhibition at 10 µM | % | 99
Cn1cc(Cn2ccnc2-c2cc(F)cc(-c3nnc(C(F)F)o3)c2)cn1 [Example 59a] | inhibition at 10 µM | % | 99
O=C(Cn1ccnc1-c1cc(F)cc(-c2nnc(C(F)F)o2)c1)N1CCCC1 [Example 33a] | inhibition at 10 µM | % | 86
O=C1NN(c2ccc(F)cc2)Cc2ccc(-c3nnc(C(F)F)o3)cc21 | inhibition at 10 µM | % | 100
Fc1cc(-c2nnc(C(F)F)o2)cc(-c2ncccc2OCc2ccccn2)c1 [Example 11a] | inhibition at 10 µM | % | 94
CN(Cc1cncc(Cl)c1)N1Cc2ccc(-c3nnc(C(F)F)o3)cc2C1=O [Example 60c] | inhibition at 10 µM | % | 101
COCC1(c2ccccc2)Oc2ccc(-c3nnc(C(F)F)o3)cc2C(=O)N1C (centres unmarked) [Example 51b] | inhibition at 10 µM | % | 99
O=C1c2cc(-c3nnc(C(F)F)o3)ccc2CN1N(CC1CCOCC1)CC1CCOCC1 [Example 18c] | inhibition at 10 µM | % | 99
Fc1cc(-c2nnc(C(F)F)o2)cc(-c2nccn2Cc2cccc(C(F)(F)F)c2)c1 [Example 67a] | inhibition at 10 µM | % | 99
